# Test system: SK-OV-3 ovarian
# PROTOCOL: NCI-60 one-dose screen, 48 h
# EXPERIMENTAL_SETUP: 10 µM unless noted
Compounds without any hit were thinned out: in the full panel of roughly 83,000, 20% have a hit. Calls of active or inactive are those of the source. The calls were made as follows: active = growth percent below 10; inactive = the rest.
Classes to choose from: active, inactive

Task: Answer briefly: the call reported for CN1CCN(c2nc(NCCCNc3ccnc4cc(Cl)ccc34)c3ccccc3n2)CC1 in this assay.
Output: inactive

Task: Field: outcome | Entry: CNC(=O)c1cc(Oc2ccc(NC(=O)Nc3ccc(Cl)c(SC)c3)c(F)c2)ccn1
Output: inactive

Task: Would you mind telling me which call this test gave COc1ccccc1Nc1nc(-c2cc3cccc(C(F)(F)F)c3oc2=O)cs1 ?
Output: inactive

Task: How did this test come out for CC/C=C\C/C=C\C[C@H]1C/C=C2/C(=O)C=C[C@@H]2C/C=C\CCC(=O)O1 ?
Output: inactive

Task: Write down the call the test reported for this compound. Item: O=c1cc(CSc2nnc(SCc3cc(=O)oc4c3ccc3ccccc34)o2)c2ccc3ccccc3c2o1
Output: inactive

Task: Identify the outcome logged in this assay for the compound shown: C#CC(F)(F)[C@]1(O)CC[C@H]2[C@@H]3CCC4=CC(=O)CCC4=C3[C@@H](c3ccc(C(C)=O)cc3)C[C@@]21C
Output: inactive

Task: Look up the recorded call for COc1cc2c(cc1-c1c(C)noc1C)ncc1nc(C3CCCC3)n([C@H](C)COC(F)F)c12 in this test.
Output: active

Task: Hi, sorry to bother you, what did the test record for CCOC(=O)c1csc(NC(=O)COc2cccc(/C=C3\CSc4ccccc4C3=O)c2)n1 ?
Output: inactive

Task: # fetch the recorded call for OC(COc1cccc2ccccc12)CN1CCN(c2ccccc2Cl)CC1 (centres undefined) here
Output: inactive
